- MEASURED_ON: UniProt P37231
- PROCEDURE_SUMMARY: Cotransfection assay in CV-1 cells, AOX PPRE luciferase reporter
- Assay type: cell-based
- Parameters: expressed in transfected cells; host or cells: CV-1 cells
- STUDY_CONDITIONS: cotransfection efficacy relative to PPARγ agonist reference molecule, read-out: huPPARγ CTF Eff. (%)
OUTCOME_MEASURE: Emax (%)

Example entries and their recorded answers appear below.
>>> df
                                   compound  unit_abbreviation  recorded_number
0  CCCc1cc(OCCc2nc(-c3ccccc3)oc2C)ccc1OCC(=O)O                  %               52
1  Cc1oc(-c2ccc(OC3CCCCC3)cc2)nc1CCOc1ccc(OC(C)(C)C(=O)O)cc1                  %               85
2  CCc1ccc(-c2nc(CCOc3ccc(OC(C)(C)C(=O)O)cc3)c(C)o2)cc1                  %              109
3  CCc1cccc(-c2nc(CCOc3ccc(OC(C)(C)C(=O)O)cc3)c(C)o2)c1                  %               66
4  CCCc1cc(OC(C)(C)C(=O)O)ccc1OCCc1nc(-c2ccccc2)oc1C [Example 27A]                  %               63
5  CCCCc1cc(OC(C)(C)C(=O)O)ccc1OCCc1nc(-c2ccccc2)oc1C [Example 31F]                  %               51
6  Cc1cc(OCCc2nc(-c3ccccc3)oc2C)ccc1OC(C)(C)C(=O)O                  %               94
7  Cc1oc(-c2cccc(Br)c2)nc1CCOc1ccc(OC(C)(C)C(=O)O)cc1                  %               60
8  Cc1oc(-c2ccccc2)nc1CCOc1ccc(OC(C)(C)C(=O)O)c(Cc2ccccc2)c1                  %               80
9  Cc1oc(-c2ccccc2)nc1CCOc1ccc(OC(C)(C)C(=O)O)c(CCc2ccccc2)c1 [Example 30J]                  %               50

I. Cc1oc(-c2ccccc2)nc1CCOc1ccc(OC(C)(C)C(=O)O)cc1
II. Cc1oc(-c2cccc(CCc3ccccc3)c2)nc1CCOc1ccc(OC(C)(C)C(=O)O)cc1 [Example 12A]
Task: Could you point out whether the larger Emax belongs to I or to II ? Pick one; state its label.
Output: II
(II: 170%, I: 69%)

---

Parameter pIC50, tested on huPPARγ (Homo sapiens), listed per item.
pIC50: −log10 of the molar value.
OUTCOME_MEASURE: pIC50

a. Cc1oc(-c2ccccc2)nc1CCOc1ccc(OC(C)(C)C(=O)O)c(CCc2ccccc2)c1 [Example 30J]
b. Cc1oc(-c2ccccc2)nc1CCOc1ccc(OC(C)(C)C(=O)O)c(CC(C)C)c1 [Example 30C]
Task: Quick one: lower pIC50, a or b ? Please reply using the label of the selected record.
Output: b
(b: 6.83, a: 7.08)

I. CCc1cc(OCCc2nc(-c3ccccc3)oc2C)ccc1OC(C)(C)C(=O)O [Example 30A]
II. CCc1ccc(-c2nc(CCOc3ccc(OC(C)(C)C(=O)O)cc3)c(C)o2)cc1
III. CCCc1cc(OCCc2nc(-c3ccccc3)oc2C)ccc1OCC(=O)O
IV. CCCCc1cc(OC(C)(C)C(=O)O)ccc1OCCc1nc(-c2ccccc2)oc1C [Example 31F]
Task: Your job: order these 4 records by pIC50, ascending. Give your ranking as a list of the labels in the requested order.
Output: III, II, I, IV

A. CCCc1cc(OC(C)(C)C(=O)O)ccc1OCCc1nc(-c2ccccc2)oc1C [Example 27A]
B. CCCc1cc(OCCc2nc(-c3ccccc3)oc2C)ccc1OC(C)(C)C(=O)O [Example 26A]
Task: Consider entries A and B . Which has the numerically lower pIC50? Please identify the chosen entry by its label.
Output: B

---

- MEASURED_ON: huPPARγ (Homo sapiens)
- Sequence (P37231 1-505): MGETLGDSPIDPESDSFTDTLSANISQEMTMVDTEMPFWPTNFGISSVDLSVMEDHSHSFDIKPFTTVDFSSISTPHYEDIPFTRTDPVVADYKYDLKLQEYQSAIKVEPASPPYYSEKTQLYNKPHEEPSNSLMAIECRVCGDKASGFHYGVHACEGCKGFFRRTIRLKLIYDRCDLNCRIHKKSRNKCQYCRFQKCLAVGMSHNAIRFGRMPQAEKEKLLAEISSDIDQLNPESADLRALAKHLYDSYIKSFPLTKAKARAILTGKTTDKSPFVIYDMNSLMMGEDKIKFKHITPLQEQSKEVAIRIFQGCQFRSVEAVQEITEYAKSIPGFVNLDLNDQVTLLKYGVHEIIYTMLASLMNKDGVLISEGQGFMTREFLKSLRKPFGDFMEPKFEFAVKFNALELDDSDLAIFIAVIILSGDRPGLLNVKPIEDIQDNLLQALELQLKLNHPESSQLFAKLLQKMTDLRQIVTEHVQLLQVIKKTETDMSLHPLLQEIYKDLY
- Sequence (P19793 1-462 partner): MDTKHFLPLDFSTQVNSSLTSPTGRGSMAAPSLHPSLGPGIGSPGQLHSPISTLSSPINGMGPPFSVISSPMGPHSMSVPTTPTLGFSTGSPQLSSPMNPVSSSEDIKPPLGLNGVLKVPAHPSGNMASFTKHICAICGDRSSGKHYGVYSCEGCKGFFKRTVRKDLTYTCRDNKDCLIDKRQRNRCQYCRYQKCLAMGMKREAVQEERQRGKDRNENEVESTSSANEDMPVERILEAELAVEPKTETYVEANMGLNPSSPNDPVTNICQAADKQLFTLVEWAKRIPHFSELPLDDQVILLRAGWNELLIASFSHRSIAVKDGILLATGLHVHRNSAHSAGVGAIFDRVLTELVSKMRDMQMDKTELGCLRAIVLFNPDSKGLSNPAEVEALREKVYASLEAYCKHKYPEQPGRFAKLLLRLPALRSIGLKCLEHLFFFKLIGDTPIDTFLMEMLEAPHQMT
OUTCOME_MEASURE: IC50 (nM)

>>> print(df.to_string())
                                   molecule  outcome_measure  recorded_number
0  Cc1oc(-c2cccc(CCc3ccccc3)c2)nc1CCOc1ccc(OC(C)(C)C(=O)O)cc1 [Example 12A]             IC50              102

P. Cc1oc(-c2ccccc2)nc1CCOc1ccc(OC(C)(C)C(=O)O)c2c1CCCC2
Q. Cc1oc(-c2ccccc2)nc1CCOc1ccc(OC(C)(C)C(=O)O)cc1
R. CCc1cccc(-c2nc(CCOc3ccc(OC(C)(C)C(=O)O)cc3)c(C)o2)c1
S. Cc1oc(-c2ccccc2)nc1CCOc1ccc(OC(C)(C)C(=O)O)c(Cc2ccccc2)c1
Task: Rank the items in ascending order with respect to IC50. Answer by naming the labels in the order asked.
Output: S, P, R, Q

---

change in vivo at 30 mg/kg listing for selected compounds.
- System: HuapoAI transgenic mice
- PROCEDURE_SUMMARY: Evaluation of triglyceride and cholesterol level in HuapoAI transgenic mice
- Type: in vivo
- STUDY_CONDITIONS: Mus musculus, 168 h; 30 mg/kg daily oral gavage 7 days, percent increase in FPLC HDLc area under the curve
Answer with a number only, understood to be in %.

Worked cases, answers included:
                                   compound  recorded_number
0  Cc1oc(-c2ccccc2)nc1CCOc1ccc(OC(C)(C)C(=O)O)c(Cc2ccccc2)c1 [Example 32]               20
1  CCc1cccc(-c2nc(CCOc3ccc(OC(C)(C)C(=O)O)cc3)c(C)o2)c1 [Example 12]              180
2  Cc1oc(-c2ccccc2)nc1CCOc1ccc(OC(C)(C)C(=O)O)c2ccccc12 [Example 37]               94
3  Cc1oc(-c2ccccc2)nc1CCOc1ccc(OC(C)(C)C(=O)O)c(CCc2ccccc2)c1 [Example 30J]               77
4  CCCc1cc(OC(C)(C)C(=O)O)ccc1OCCc1nc(-c2ccccc2)oc1C [Example 27A]               52
5  Cc1oc(-c2ccccc2)nc1CCOc1ccc(OC(C)(C)C(=O)O)c(CC(C)C)c1 [Example 30C]               31
6  Cc1cc(OCCc2nc(-c3ccccc3)oc2C)ccc1OC(C)(C)C(=O)O [Example 24]               61
7  Cc1oc(-c2ccccc2)nc1CCOc1ccc(OC(C)(C)C(=O)O)c2c1CCCC2 [Example 38]               86

Task: // returns reported change in vivo at 30 mg/kg for input Cc1oc(-c2ccccc2)nc1CCOc1ccc(OC(C)(Cc2ccccc2)C(=O)O)cc1 (centres unmarked) [Example 6]
Output: 20

Task: Please give the result for CCCc1cc(OCCc2nc(-c3ccccc3)oc2C)ccc1OCC(=O)O [Example 26] too.
Output: 19

Task: Do the same for Cc1oc(-c2cccc(CCc3ccccc3)c2)nc1CCOc1ccc(OC(C)(C)C(=O)O)cc1 [Example 12A] please
Output: 47
